# study system: Fatty-acid amide hydrolase 1 (Rattus norvegicus, UniProt P97612)
# Sequence (P97612 whole entry): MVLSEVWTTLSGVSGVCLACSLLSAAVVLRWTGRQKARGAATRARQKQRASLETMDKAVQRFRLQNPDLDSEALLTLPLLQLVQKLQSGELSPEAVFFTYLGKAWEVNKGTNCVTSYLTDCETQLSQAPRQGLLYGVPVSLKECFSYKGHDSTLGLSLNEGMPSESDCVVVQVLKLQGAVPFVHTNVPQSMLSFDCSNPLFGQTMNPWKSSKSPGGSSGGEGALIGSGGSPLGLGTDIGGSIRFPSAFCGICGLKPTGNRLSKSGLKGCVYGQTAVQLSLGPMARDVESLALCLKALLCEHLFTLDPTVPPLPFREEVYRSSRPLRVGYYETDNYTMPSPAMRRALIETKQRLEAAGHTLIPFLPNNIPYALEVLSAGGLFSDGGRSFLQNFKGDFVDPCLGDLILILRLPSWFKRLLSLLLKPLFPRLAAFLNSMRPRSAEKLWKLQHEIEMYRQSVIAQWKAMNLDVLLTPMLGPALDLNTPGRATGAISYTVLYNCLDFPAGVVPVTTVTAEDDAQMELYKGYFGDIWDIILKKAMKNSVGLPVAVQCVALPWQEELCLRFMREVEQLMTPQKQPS
# assay summary: Inhibition of FAAH in rat brain microsomes using N-(2-hydroxyethyl)-4-pyren-1-ylbutanamide as substrate incubated for 45 mins by reverse-phase HPLC-based fluorescence assay
Assign labels as follows, please: Met for IC50 below 800 nM; Not met for IC50 equal to or exceeding 800 nM.

>  <molecule>
O=C(COc1ccc(Oc2ccccc2)cc1)Cn1ncc2cc([N+](=O)[O-])ccc21

>  <study system>
Fatty-acid amide hydrolase 1 (Rattus norvegicus, UniProt P97612)

>  <cat>
Met

$$$$
>  <molecule>
O=C(COc1ccc(Oc2ccccc2)cc1)Cn1ncc2cc(C(=O)NS(=O)(=O)c3ccccc3)ccc21

>  <study system>
Fatty-acid amide hydrolase 1 (Rattus norvegicus, UniProt P97612)

>  <cat>
Not met

$$$$
>  <molecule>
O=C(COc1ccc(Oc2ccccc2)cc1)Cn1ncnn1

>  <study system>
Fatty-acid amide hydrolase 1 (Rattus norvegicus, UniProt P97612)

>  <cat>
Met

$$$$
>  <molecule>
N#CNC(COc1ccc(Oc2ccccc2)cc1)Cn1ncnn1 (configuration not stated)

>  <study system>
Fatty-acid amide hydrolase 1 (Rattus norvegicus, UniProt P97612)

>  <cat>
Not met

$$$$

INPUT: Here's an entry: "CCNC(=O)Nc1ccc2c(cnn2CC(=O)COc2ccc(Oc3ccccc3)cc2)c1" . Is its IC50 below 800 nM?
OUTPUT: Not met

INPUT: I wonder whether "COCC(=O)Nc1ccc2c(cnn2CC(=O)COc2ccc(Oc3ccccc3)cc2)c1" has IC50 below 800 nM. Can you tell?
OUTPUT: Not met

INPUT: Just wondering, is IC50 of "O=C(COc1ccc(Oc2ccccc2)cc1)Cn1ncc2cc(NC(=O)NC3CCCCC3)ccc21" below 800 nM?
OUTPUT: Not met

###

# study system: UniProtKB P97612
# assay summary: Inhibition of FAAH in rat brain homogenate using 2-arachidonoyl-[3H]-glycerol as substrate by scintillation counting method
# Format: tissue-based
Reported IC50 values follow for various compounds
// note: answer is a bare numeric in nM

Record excerpt, results attached:
>  <entry smiles>
Cc1ccc2c(nc(CN3CCN(C(=O)n4nnc5ccccc54)CC3)c3cccn32)c1C

>  <IC50 / nM>
27.3

$$$$
>  <entry smiles>
O=C(N1CCN(Cc2nc3cc(F)ccc3n3cccc23)CC1)n1cncn1

>  <IC50 / nM>
20.7

$$$$
>  <entry smiles>
O=C(N1CCN(Cc2nc3cc(Cl)ccc3n3cccc23)CC1)n1nnc2ccccc21

>  <IC50 / nM>
35.8

$$$$

INPUT: What IC50 value was documented for this compound, "O=C(N1CCC(NCc2nc3cc(F)ccc3n3cccc23)CC1)n1nnc2ccccc21" ?
OUTPUT: 9.6

###

# assay summary: In vivo inhibition of FAAH in NMRI mouse assessed as remaining enzymatic activity in liver at 30 mg/kg, po measured after 1 hr by AEA-substrate based scintillation counting method relative to control
# Format: functional
In plain terms, low Activity, meaning strictly below 10%, gives 1.0, and everything else gives 0.0.

Worked cases, answers included:
>  <entry smiles>
O=c1oc(Oc2ccc(F)cc2F)nn1-c1ccc(O)cc1

>  <cat>
0.0

$$$$
>  <entry smiles>
Cl.Cl.O=c1oc(Oc2ccc(F)cc2F)nn1-c1ccc(OCCN2CCNCC2)cc1

>  <cat>
1.0

$$$$
>  <entry smiles>
Cl.Cl.O=c1oc(Oc2ccc(F)cc2F)nn1-c1ccc(OCCCN2CCNCC2)cc1

>  <cat>
1.0

$$$$

INPUT: Activity under 10%? Item: "Cl.O=c1oc(Oc2ccc(F)cc2F)nn1-c1ccc(OCCN2CCCC2)cc1"
OUTPUT: 1.0

INPUT: Please let me know if "O=c1oc(Oc2ccc(F)cc2F)nn1-c1cccc(O)c1" shows Activity below 10%.
OUTPUT: 0.0

Reference for the values: ChEMBL document CHEMBL4680160
